system: rabbit eye cornea; test: Local anesthetic activity, rabbit eye cornea terminal anesthesia test; format: in vivo; details: rabbit corneal model, 1% aqueous solution
Hi there, I'd appreciate the recorded Total Duration of Anesthesia for every entry that follows.
I only need the number, in min, no unit after it.

Tell me the measured Total Duration of Anesthesia of COc1ccc(C2NCCc3cc(OC)c(OC)cc32)cc1OC (stereo not drawn) [Compound 3d] , please.
70.0

What about COc1cc2c(cc1OC)C(c1cc(Br)ccc1O)NCC2 (stereo not drawn) [Compound 3f] ?
64.0

Would you kindly repeat that for CCN(CC)CC(=O)Nc1c(C)cccc1C [Lidocaine, reference compound] ?
52.7

What about COc1cc2c(cc1OC)C(c1ccc(Cl)cc1)NCC2 (stereo not drawn) [Compound 3r] ?
35.0

Likewise for COc1cc(Br)c(C2NCCc3cc(OC)c(OC)cc32)cc1O (stereo not drawn) [Compound 3h] ?
40.0

Follow-up entry: COc1cc2c(cc1OC)C(c1ccc(N)cc1)NCC2 (stereo not drawn) [Compound 4a]
25.0

Param item: COc1cc2c(cc1OC)C(c1cc(Br)c(O)c(OC)c1)NCC2 (stereo not drawn) [Compound 3l]
89.0

Next molecule: COc1cc2c(cc1OC)C(c1cc3c(cc1Cl)OCO3)NCC2 (stereo not drawn) [Compound 3k]
43.0

Try this molecule next: COc1cc2c(cc1OC)C(c1ccccc1O)NCC2 (stereo not drawn) [Compound 3b]
44.0

Same question, COc1cc2c(cc1OC)C(c1ccccc1)NCC2 (stereo not drawn) [Compound 3a] this time
53.0

Now try COc1cc2c(cc1OC)C(c1cccc(N)c1)NCC2 (stereo not drawn) [Compound 4b] .
44.0

Now give it for COc1cc2c(cc1OC)C(c1cc3c(cc1Br)OCO3)NCC2 (stereo not drawn) [Compound 3j] too.
52.0

Similarly, COc1ccc(C2NCCc3cc(OC)c(OC)cc32)cc1O (stereo not drawn) [Compound 3c] ?
70.0

Same thing, different molecule: COc1cc2c(cc1OC)C(c1cccc(Br)c1)NCC2 (stereo not drawn) [Compound 3o]
115.0

Entry COc1cc2c(cc1OC)C(c1ccccc1OC)NCC2 (stereo not drawn) [Compound 3p] please
67.0

For COc1cc2c(cc1OC)C(c1ccc(O)c(Br)c1)NCC2 (stereo not drawn) [Compound 3e] then?
80.0

Same thing, different molecule: COc1cc2c(cc1OC)C(c1ccc([N+](=O)[O-])cc1)NCC2 (stereo not drawn) [Compound 3m]
48.0

Another molecule: COc1cc2c(cc1OC)C(c1ccc(N(C)C)cc1)NCC2 (stereo not drawn) [Compound 3q]
45.0

Also need COc1cc(Br)c(C2NCCc3cc(OC)c(OC)cc32)cc1OC (stereo not drawn) [Compound 3g] , thanks.
44.0

Another molecule to check: COc1cc2c(cc1OC)C(c1ccc3c(c1)OCO3)NCC2 (stereo not drawn) [Compound 3i]
57.0

Do the same for COc1cc2c(cc1OC)C(c1cccc([N+](=O)[O-])c1)NCC2 (stereo not drawn) [Compound 3n] please
37.0
